Item-by-item account of TL1A Binding Level (Late)
- target system: T1, human TL1A extracellular domain with N-terminal HIS and FLAG tag (human, UniProt O95150 72-251)
- T1 construct: the whole entry is named
- T1 sequence: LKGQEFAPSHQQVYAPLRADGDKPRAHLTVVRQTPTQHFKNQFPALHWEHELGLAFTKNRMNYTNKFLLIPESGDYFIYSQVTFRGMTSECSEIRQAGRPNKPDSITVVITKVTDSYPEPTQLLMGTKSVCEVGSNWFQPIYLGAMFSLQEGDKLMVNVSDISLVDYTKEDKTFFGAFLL
- measurement notes: SPR Run 5, Ab from supernatant captured on Protein A, TL1A 5 ug/mL, timepoint 220
Express your answer as a number followed by its unit.

// solved cases for TL1A Binding Level (Late) follow
320-373 (antibody, human IgG1, name in Kabat numbering, V domains shown, human IgG1, lambda) VH: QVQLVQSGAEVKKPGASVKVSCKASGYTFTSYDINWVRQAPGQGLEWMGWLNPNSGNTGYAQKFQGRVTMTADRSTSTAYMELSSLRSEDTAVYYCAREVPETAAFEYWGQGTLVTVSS VL: QSVLTQPPSVSGAPGQRVTISCTSSSSDIGAGLGVHWYQQLPGTAPKLLIEGYYNRPSGVPDRFSGSKSGTSASLTITGLLPEDEGDYYCQSYDGTLSQLFGGGTKLTVLG ... -1 RU
320-381 (antibody, human IgG1, name in Kabat numbering, V domains shown, human IgG1, lambda) VH: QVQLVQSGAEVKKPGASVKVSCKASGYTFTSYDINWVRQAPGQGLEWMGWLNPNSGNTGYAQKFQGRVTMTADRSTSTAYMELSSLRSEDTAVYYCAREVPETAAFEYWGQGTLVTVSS VL: QSVLTQPPSVSGAPGQRVTISCTSSSSDIGAGLGVHWYQQLPGTAPKLLIEGYYNRPSGVPDRFSGSKSGTSASLTITGLLPEDEGDYYCQSYDGTLSASFGGGTKLTVLG ... 1 RU
320-429 (antibody, human IgG1, name in Kabat numbering, V domains shown, human IgG1, lambda) VH: QVQLVQSGAEVKKPGASVKVSCKASGYTFWSYDINWVRQAPGQGLEWMGWLNPNSGNTGYAQKFQGRVTMTADRSTSTAYMELSSLRSEDTAVYYCAREVPETAAFEYWGQGTLVTVSS VL: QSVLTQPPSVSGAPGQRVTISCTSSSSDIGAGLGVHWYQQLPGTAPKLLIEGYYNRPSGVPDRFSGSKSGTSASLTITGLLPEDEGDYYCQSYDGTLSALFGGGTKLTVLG ... 11 RU

Lookup: Item 320-390 (antibody, human IgG1, name in Kabat numbering, V domains shown, human IgG1, lambda) VH: QVQLVQSGAEVKKPGASVKVSCKASQYTFTSYDINWVRQAPGQGLEWMGWLNPNSGNTGYAQKFQGRVTMTADRSTSTAYMELSSLRSEDTAVYYCAREVPETAAFEYWGQGTLVTVSS VL: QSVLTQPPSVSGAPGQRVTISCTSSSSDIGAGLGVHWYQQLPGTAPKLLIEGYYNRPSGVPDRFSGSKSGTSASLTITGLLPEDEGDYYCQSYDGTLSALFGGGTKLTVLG has what recorded TL1A Binding Level (Late)?
Found: 11 RU

Lookup: Item 320-377 (antibody, human IgG1, name in Kabat numbering, V domains shown, human IgG1, lambda) VH: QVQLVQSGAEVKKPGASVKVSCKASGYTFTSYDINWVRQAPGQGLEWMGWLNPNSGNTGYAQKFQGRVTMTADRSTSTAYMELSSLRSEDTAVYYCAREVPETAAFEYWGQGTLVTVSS VL: QSVLTQPPSVSGAPGQRVTISCTSSSSDIGAGLGVHWYQQLPGTAPKLLIEGYYNRPSGVPDRFSGSKSGTSASLTITGLLPEDEGDYYCQSYDGTLSLLFGGGTKLTVLG has what recorded TL1A Binding Level (Late)?
Found: -1 RU
